assay.system: T1, human PDL1 (recombinant, soluble) (human, UniProt Q9NZQ7 19-238)
T1 construct: also called hPDL1; hPD-L1
experiment.notes: PDL1/PD-1 competition ELISA; PD-1 coated; scFv
measured.property: Maximum Inhibition (%)

INSERT INTO assay_data (binder, measured_property, data_value) VALUES
  ('PRO830 (33-03-G02-sc01 scFv) (scFv, also called 33-03-G02 CDR) scFv: DIQMTQSPSSLSASVGDRVTITCQASQSINDYLAWYQQKPGKAPKLLIYKASTLASGVPSRFSGSGSGTDFTLTISSLQPEDFATYYCQQGYIITDIDNVFGTGTKVTVLGGGGGSGGGGSGGGGSGGGGSQVQLQESGPGLVKPSETLSLTCKVSGFSFSSGYDMCWIRQPPGKGLEWIGCVVAGSVDITYYASWAKGRVTISVDSSKNQFSLKLSSVTAADTAVYYCARKDAYSDAFNLWGQGTLVTVSS', 'Maximum Inhibition (%)', 99.8);
